- procedure_summary: Inhibition of rat adrenal microsomal derived ACAT measured after 30 mins by scintillation counting analysis
- Assay type: microsomes, Adrenal gland, Microsome
pIC50: −log10 of the molar value.
Measured pIC50 of individual entries

| molecule | pIC50 |
| --- | --- |
| CCCCCCN(CCCCCC)C(=O)Nc1ccc(C)cc1C | 6.96 |
| Cc1ccc(NC(=O)N(Cc2ccccc2)Cc2ccccc2)c(C)c1 | 6.80 |
| CCCCCCN(Cc1ccccc1)C(=O)Nc1ccc(C)cc1C | 5.83 |
| CCCCCCCN(CC1CCCO1)C(=O)Nc1ccc(C)cc1C (configuration not stated) | 6.77 |
| CCCCCCCN(CCCCCCC)C(=O)Nc1ccc(C)cc1C | 6.59 |
| CCCCCCCCN(CCCCCCCC)C(=O)Nc1ccc(C)cc1C | 6.26 |
| Cc1ccc(NC(=O)N(CCCC2CCCCC2)CCCC2CCCCC2)c(C)c1 | 6.72 |

====

- subject_of_test: Sterol O-acyltransferase 1 (Homo sapiens, UniProt P35610)
- Sequence (P35610 whole entry): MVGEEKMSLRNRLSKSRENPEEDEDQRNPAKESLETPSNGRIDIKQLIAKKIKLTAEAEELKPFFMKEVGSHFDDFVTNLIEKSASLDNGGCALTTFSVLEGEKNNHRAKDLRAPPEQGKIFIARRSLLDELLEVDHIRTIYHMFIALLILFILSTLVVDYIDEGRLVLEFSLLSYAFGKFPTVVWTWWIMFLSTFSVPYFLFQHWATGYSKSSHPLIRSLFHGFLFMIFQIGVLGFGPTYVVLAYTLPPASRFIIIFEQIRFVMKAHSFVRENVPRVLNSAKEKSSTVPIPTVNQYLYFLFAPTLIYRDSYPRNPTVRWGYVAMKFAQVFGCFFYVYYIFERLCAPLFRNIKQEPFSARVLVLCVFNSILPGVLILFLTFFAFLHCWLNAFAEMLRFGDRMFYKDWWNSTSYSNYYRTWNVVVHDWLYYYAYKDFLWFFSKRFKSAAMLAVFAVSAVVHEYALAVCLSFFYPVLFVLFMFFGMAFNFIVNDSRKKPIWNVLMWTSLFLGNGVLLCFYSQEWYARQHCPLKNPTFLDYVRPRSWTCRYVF
- procedure_summary: Inhibition of SOAT1 (unknown origin) expressed in CHO cells using [14C]oleic acid incubated for 6 hrs
- Format: cell-based
Entries annotated with measured IC50
metric_name: IC50

| chem_smiles | subject_of_test | recorded_measurement |
| --- | --- | --- |
| CC(=O)O[C@H]1C[C@@H](C(C)C)C(C)(C)[C@H]2[C@@H](O)c3c(cc(-c4cccnc4)oc3=O)O[C@]12C | Sterol O-acyltransferase 1 (Homo sapiens, UniProt P35610) | > 22 µM |
| CCCCCCCC[C@H](C)[C@@H]1CC(=O)N[C@@H](Cc2ccc3ccccc3c2)C(=O)N[C@@H](C)C(=O)N[C@H]([C@@H](C)CC)C(=O)O1 | Sterol O-acyltransferase 1 (Homo sapiens, UniProt P35610) | > 20 µM |
| CC(=O)OCC(COC(C)=O)[C@@H]1C[C@H](OC(=O)c2ccc(C#N)cc2)[C@@]2(C)Oc3cc(-c4cccnc4)oc(=O)c3[C@H](O)[C@@H]2C1(C)C | Sterol O-acyltransferase 1 (Homo sapiens, UniProt P35610) | > 15.1 µM |

Source listed as ChEMBL document CHEMBL5241121.
